From: patent US20170240628A1

So I've got a bunch of binders here, and I need their pEC50 values.
testedTarget: T1, recombinant human midkine (huMK) (human, UniProt P21741 21-143)
T1 construct: also called human MK; Human MK
T1 sequence (looked up): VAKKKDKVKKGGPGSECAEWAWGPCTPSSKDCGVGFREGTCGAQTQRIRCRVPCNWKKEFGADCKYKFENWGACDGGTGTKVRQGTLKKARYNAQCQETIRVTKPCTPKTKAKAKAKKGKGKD
procedureText: ELISA, plate coated with huMK
Procedure: The binding specificity and affinity of the humanised anti-MK antibodies to recombinant human MK (huMK) and murine MK (muMK) was assessed by ELISA. […] The reaction was stopped with 3 M HCl, absorbance read at 490 nm on a Dynex Technologies MRX TC II plate reader and the binding curves plotted. […]
Reminder that pEC50 means the negative base-10 logarithm of the concentration expressed in mol/L.

Query string: Fill in: pEC50 of IP14-H1L3 (antibody, V domains shown, also called hIP14-H1L3; Hv1 Lv3) VH: QVQLVQSGAEVKKPGHSVKVSCKASGQSFSSYWMNWVRQAPGQGLEWIGMIHPSDSETILNQKFKDKATLTVDISTSTAYMELSSPRSEDTAVYYCSSWSAKRGDFWGQGTLVTVSS VL: DIVLTQSPATLSLSPGERATLSCRASESISNNLHWYQQKPGQAPRLLIYYASQSISGIPARFSGSGPGTDFTLTISSLEPEDFAVYYCQQSNSWPLTFGGGTKLEIKR is ___
Result string: 10.20

Query string: Fill in: pEC50 of IP14-H1L7 (antibody, V domains shown, also called Hv1 Lv7) VH: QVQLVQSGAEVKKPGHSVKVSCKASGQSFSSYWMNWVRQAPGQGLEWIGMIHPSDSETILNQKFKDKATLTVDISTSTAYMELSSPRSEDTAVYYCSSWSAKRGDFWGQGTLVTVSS VL: DIVLTQSPATLSLSPGERANLSCRASESISNNLHWYQQKPHQAPRLLIYYASQSISGVPARFSGSGSGTDFNLTISSVEPEDFAVYYCQQSNSWPLTFGQGTKVEIKR is ___
Result string: 10.37

Query string: Fill in: pEC50 of IP14-H1L6 (antibody, V domains shown, also called Hv1 Lv6) VH: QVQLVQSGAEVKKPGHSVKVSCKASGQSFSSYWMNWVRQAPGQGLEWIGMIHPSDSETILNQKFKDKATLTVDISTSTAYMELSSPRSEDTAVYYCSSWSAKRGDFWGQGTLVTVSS VL: EIVLTQSPSTLSASVGDRVNITCRASESISNNLHWYQQKPHKAPKLLIYYASQSISGVPSRFSGSGSGTEFNLTISSVQPDDFATYYCQQSNSWPLTFGQGTKVEIKR is ___
Result string: 10.28

Query string: Fill in: pEC50 of IP14-H3L2 (antibody, V domains shown, also called Hv3 Lv2) VH: QVQLVQSGAEVKKPGASVKVSCKASGQSFSSYWMNWVRQAPGQGLEWMGMIHPSDSETILNQKFKDKVTMTRDTSTSTVYMELSSLRSEDTAVYYCARWSAKRGDFWGQGTLVTVSS VL: EIVLTQSPATLSLSPGERATLSCRASESISNNLHWYQQKPGQAPRLLIKYASQSISGIPARFSGSGPGTDFTLTISSVEPEDFAVYYCQQSNSWPLTFGGGTKLEIKR is ___
Result string: 10.09

Query string: Fill in: pEC50 of IP14-H2L6 (antibody, V domains shown, also called Hv2 Lv6) VH: QVQLVQSGAEVKKPGASVKVSCKASGQSFSSYWMNWVRQAPGQGLEWIGMIHPSDSETILNQKFKDKATLTVDISTSTAYMELSSLRSEDTAVYYCSSWSAKRGDFWGQGTLVTVSS VL: EIVLTQSPSTLSASVGDRVNITCRASESISNNLHWYQQKPHKAPKLLIYYASQSISGVPSRFSGSGSGTEFNLTISSVQPDDFATYYCQQSNSWPLTFGQGTKVEIKR is ___
Result string: 10.27
